Entries and their log10(MFI)
Molecular target: T1, human TMEM106B (human, UniProt Q9NUM4 2-274)
T1 construct: full-length, transiently expressed on HEK293 cells, or natively expressed on HeLa, U251 and A549 cells (the cell is named under assay); also the source of the Pepscan peptides; also called huTMEM106B; huTMEM
Assay: FACS HEK+huTMEM 0.1 ug/ml;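 note: flow cytometry binding of purified mouse IgG antibodies to HEK293 cells transiently expressing TMEM106B, read as median fluorescence intensity on live cells (propidium iodide negative gating)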
Recorded endpoint: log10(MFI) (log10 of the value in MFI)

- Binder: "TM-22 (antibody, V domains shown) VH: QVQLQQSGPELVKPGASVKISCKASGYRFTSYYIHWVKQRPGQGLEWIGWIYPGNGITNYNEKFKGKATLTADTSSSTAYMQLSSLTSEDSAVYYCASPYYGIRNCYFDVWGTGTTVTVSS VL: DVLMTQTPLSLPVSLGDHASISCRSGQSIVHSNGNTYLEWYLQKPGQSPKLLIYKVSNRFSGVPDRFSGSGSGTDFTLKISRVEAEDLGIYYCFQGSHVPWTFGGGTKLEIK"
  Recorded endpoint: "log10(MFI)"
  Measured result: 2.92
- Binder: "TM-32 (antibody, V domains shown) VH: EVQLQQSGAELVRPGASVRLSCIASGFNIKDYYMYWVKQRPEQGLEWIGRIDPEDGDTEYVPKFQGKATMTADTSSNTAYLQLSSLTSEDIGVYYCTTRTWDLYYAVDNWGQGTSVTVSS VL: DVLMTQTPLSLPVSLGDQASISCRSSQNIVHSNGNTYLEWYLQKPGQSPKLLIDKVSNRFSGVPDRFSGSGSGTDFTLKISRVEAEDLGIYYCFQGSHVPFTFGSGTKLEIK"
  Recorded endpoint: "log10(MFI)"
  Measured result: 4.31
- Binder: "TM-3 (antibody, V domains shown) VH: QVTLKESGPGIVQPSQTLSLTCSFSGFSLNTLGRGVGWIRQPSGKGLEWLAKIWWNDDKFYYPALKSRLTISKDTSKNQIFLKIANVDTADSATYYCARIAGGTGAAYWGQGTTLTVSS VL: DIVMTQAAFSNPVTLGTSASISCRSSKSLLHSNGITYLYWYLQKPGQSPQLLISQMSSLASGVPDRFSSGGSGTDFTLRISRVEAEDVGVFYCAQNLELPWTFGGGTKLELK"
  Recorded endpoint: "log10(MFI)"
  Measured result: 4.69
- Binder: "TM-48 (antibody, V domains shown) VH: QVQLQQSGPELVKPGASVKLSCKASGYTFTSYDINWVKQRPGQGLEWIGWIYPRDGNTQYIEKLKGKATLTVDTSSSTAYMELHSLTSEDSAVYFCARWIFYAMDYWGQGTSVTVSS VL: DVLMTQTPLSLPVSLGNQASISCRSSQSIVHGNGNTYLEWYLQKPGQSPKLLIYKVSNRFSGVPDRFSGSGSGTDFTLKISRVEAEDLGVYYCFQGSHLPYTFGGGTKLEIK"
  Recorded endpoint: "log10(MFI)"
  Measured result: 4.33
- Binder: "TM-19 (antibody, V domains shown) VH: DVQLQQSGAELVRPGASVKLSCTASGFNIKDYYMYWVKQRPEQGLEWIGRIDPEDGDTENAPKFRGMATMTADTSSNTAYLQLNSLTSEDTAVYYCTTRIGNLYHVMDYWGHGTSVTVSS VL: DVLMTQTPLSLPVSLGDQASISCRSSQSIVHSNGNTYLEWYLQKPGQAPKLLIDKVFNRFSGVPDRFSGSGSGTDFTLKISRVEAEDLGVYYCFQGSHVPFTFGSGTKLEIK"
  Recorded endpoint: "log10(MFI)"
  Measured result: 4.47
- Binder: "TM-49 (antibody, V domains shown, mouse IgG (hybridoma)) VH: QVQLQQPGAELVRPGSSVKLSCKASGYTFTRFWMHWVKQRPIQGLEWIGNIDPSDSQTHYNQKFKDKATLTVDKSSSTAYMQLSSLTSEDSAVYYCARLITVDYAMDYWGQGTSVTVSS VL: QIVLTQSPAIMSASPGEKVTISCSASSSVSYMYWYQQKPGSSPKPWIHRTSNLASGVPVRFSGSGSGTSYSLTISSMEAEDAATYYCQQYHSYPPTFGAGTKLELK"
  Recorded endpoint: "log10(MFI)"
  Measured result: 3.48
- Binder: "TM-13 (antibody, V domains shown) VH: QVQLQQSGAELVKPGASVKMSCKASGYTFTTFPIEWMKQSHGKGLEWIGNFHPYNDDTKYNEKFKGKATLTVDKSSSTVYLDLSRLTSDDSAVYYCARYFYGGMDYWGQGTSVTVSS VL: DIQMTQSPASLSVSVGETVTITCRASENIYSSLGWYQQKQGESPQLLVFAATNLADGVPSRFSGSGSGTQYSLKINSLQSEDFGTYYCQHLWSIPWTFGGGTRLEIK"
  Recorded endpoint: "log10(MFI)"
  Measured result: 4.28
